# protocol.text: in vitro
# Type: in vitro ADME, human
# measurement.parameters: human, pH 7.4
Listed here are compounds together with their documented recovery at 15 min, 5 μM.
I'd appreciate it if you wrote the number followed by its unit.

// below: answered compounds
CC(C)CN(C[C@@H](O)[C@H](Cc1ccccc1)NC(=O)OCc1cncs1)C(=O)c1ccc(C(F)(F)F)cc1: 57%
O=C(N[C@@H](Cc1ccccc1)[C@H](O)CN(CC1CCCCC1)C(=O)c1ccncc1)OCc1cncs1: 98%
CC(C)CN(C[C@@H](O)[C@H](Cc1ccccc1)NC(=O)OCc1cncs1)C(=O)c1ccccn1: 55%
CC(C)CN(C[C@@H](O)[C@H](Cc1ccccc1)NC(=O)OCc1cncs1)C(=O)c1cccc(Cl)c1: 57%
CC(C)CN(C[C@@H](O)[C@H](Cc1ccccc1)NC(=O)OCc1cncs1)C(=O)c1ccc[nH]1: 24%
CC(C)CN(C[C@@H](O)[C@H](Cc1ccccc1)NC(=O)OCc1cncs1)C(=O)c1cccnc1: 69%

The value of recovery at 15 min, 5 μM measured for the compound `CC(C)CN(C[C@@H](O)[C@H](Cc1ccccc1)NC(=O)OCc1cncs1)C(=O)c1ccc(F)cc1` turned out to be 81%
